biological target: UniProt:P24723; test: Evaluated against recombinant human Protein kinase C eta
Sequence (P24723 whole entry): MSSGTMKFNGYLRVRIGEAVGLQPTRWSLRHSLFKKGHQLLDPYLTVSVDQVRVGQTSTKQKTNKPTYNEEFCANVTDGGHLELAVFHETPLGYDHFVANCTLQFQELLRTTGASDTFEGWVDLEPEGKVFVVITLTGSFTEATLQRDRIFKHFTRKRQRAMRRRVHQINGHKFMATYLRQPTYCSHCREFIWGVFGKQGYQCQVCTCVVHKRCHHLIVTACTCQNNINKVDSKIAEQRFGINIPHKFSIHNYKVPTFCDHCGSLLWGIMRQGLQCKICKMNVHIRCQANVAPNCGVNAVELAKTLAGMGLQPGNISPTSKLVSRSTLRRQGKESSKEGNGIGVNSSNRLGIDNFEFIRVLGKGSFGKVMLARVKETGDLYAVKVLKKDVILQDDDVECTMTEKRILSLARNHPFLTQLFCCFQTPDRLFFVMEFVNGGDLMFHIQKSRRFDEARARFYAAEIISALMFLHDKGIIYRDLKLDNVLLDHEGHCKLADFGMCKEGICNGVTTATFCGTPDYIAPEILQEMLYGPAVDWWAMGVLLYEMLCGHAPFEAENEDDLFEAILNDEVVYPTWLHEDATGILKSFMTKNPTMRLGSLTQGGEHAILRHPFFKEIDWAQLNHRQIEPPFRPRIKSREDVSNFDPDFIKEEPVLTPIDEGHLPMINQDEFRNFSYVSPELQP
endpoint.name: IC50 (µM)
Note: unit µM is implicit; provide only the numeric part.

> print(dat)
                                   compound  endpoint.value
1  CN(C)C(COC(=O)c1cc(O)c(C(=O)c2c(O)cccc2C(=O)O)c(O)c1)Cc1ccc(O)cc1 (centres undefined)             1.4
2  COC(=O)c1cccc(O)c1C(=O)c1c(O)cc(C(=O)OC2CCCC2Cc2ccc(O)cc2)cc1O (centres undefined)            0.04
3  CS(=O)(=O)NC(COC(=O)c1cc(O)c(C(=O)c2c(O)cccc2C(=O)O)c(O)c1)Cc1ccc(O)cc1 (centres undefined)            0.39

Now examine the next entry.
Give the reported value of IC50 for this record: O=C(OCC(Cc1ccc(O)cc1)NS(=O)(=O)c1ccc2ccccc2c1)c1cc(O)c(C(=O)c2c(O)cccc2C(=O)O)c(O)c1 (centres undefined) 35
